target: Mitogen-activated protein kinase 10 (Homo sapiens)
method notes: Binding affinity to JNK3 (unknown origin) by surface plasmon resonance analysis in presence of ATP
condition: read-out: Kd
pKd: −log10 of the molar value.
pKd values, listed per item
measured metric: pKd

• COc1ccc2nc(-c3ccc4ccccc4c3)n(-c3ccnc(NC4CCCCC4)n3)c2c1 = 5.75
• O=C(C1CC1)N1CCC[C@@H](Nc2nccc(-n3c(-c4ccc5ccccc5c4)nc4cc(O)ccc43)n2)C1 = 5.58
• O=C(C1CC1)N1CCC[C@@H](Nc2cc(-n3c(-c4cccc(O)c4)nc4ccccc43)ccn2)C1 = 5.58
• O=C(C1CC1)N1CCC[C@@H](Nc2nccc(-n3c(-c4ccc5ccccc5c4)nc4ccccc43)n2)C1 = 5.71
• COc1ccc2c(c1)nc(-c1ccc3ccccc3c1)n2-c1ccnc(NC2CCCCC2)c1 = 3.75

---

target: Mitogen-activated protein kinase 10 (Homo sapiens, UniProt P53779)
Sequence (P53779 whole entry): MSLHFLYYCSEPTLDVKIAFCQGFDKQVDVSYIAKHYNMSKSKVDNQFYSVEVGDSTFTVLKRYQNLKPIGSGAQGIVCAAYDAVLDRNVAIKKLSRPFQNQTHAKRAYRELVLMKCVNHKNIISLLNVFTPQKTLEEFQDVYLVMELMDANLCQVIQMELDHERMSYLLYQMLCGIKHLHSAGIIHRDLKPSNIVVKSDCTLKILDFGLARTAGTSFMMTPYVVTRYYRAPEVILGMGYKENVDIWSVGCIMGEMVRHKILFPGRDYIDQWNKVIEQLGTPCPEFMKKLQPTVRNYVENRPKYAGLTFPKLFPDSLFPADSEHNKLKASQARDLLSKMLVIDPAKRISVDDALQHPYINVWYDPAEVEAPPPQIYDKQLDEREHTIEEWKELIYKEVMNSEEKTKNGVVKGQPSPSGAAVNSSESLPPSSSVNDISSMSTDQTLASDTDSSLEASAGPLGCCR
method notes: Binding affinity to JNK3 (unknown origin) by surface plasmon resonance analysis in presence of ATP
condition: read-out: pKd (converted)
Entries annotated with measured Kd
measured metric: Kd (µM)

- C[C@H](O)CNc1cc(-n2c(-c3ccc4ccccc4c3)nc3ccccc32)ccn1: 12.6
- Oc1ccc2c(c1)nc(-c1ccc3ccccc3c1)n2-c1ccnc(N[C@@H]2CCCNC2)c1: 6.03
- Oc1ccc2c(c1)nc(-c1ccc3ccccc3c1)n2-c1ccnc(NC2CCOCC2)n1: 1.66
- O=C(C1CC1)N1CCC[C@@H](Nc2nccc(-n3c(-c4ccc5ccccc5c4)nc4ccccc43)n2)C1: 1.95
- Clc1ccc(-c2nc3ccccc3n2-c2ccnc(NC3CCOCC3)n2)cc1Cl: 21.9
- c1ccc2cc(-c3nc4ccccc4n3-c3ccnc(NC4CCOCC4)c3)ccc2c1: 4.68
- Oc1ccc2c(c1)nc(-c1ccc3ccccc3c1)n2-c1ccnc(NC2CCCCC2)n1: 1.91
- c1ccc2cc(-c3nc4ccccc4n3-c3ccnc(N[C@@H]4CCCNC4)n3)ccc2c1: 2.95
- O=C(C1CC1)N1CCC[C@@H](Nc2nccc(-n3c(-c4ccc(Cl)c(Cl)c4)nc4ccccc43)n2)C1: 7.76

---

target: Mitogen-activated protein kinase 10 (Homo sapiens, UniProt P53779)
method notes: Binding affinity to JNK3 (unknown origin) by surface plasmon resonance analysis in presence of ATP
condition: read-out: Kd
pKd: −log10 of the molar value.
measured metric: pKd

• COc1ccc2c(c1)nc(-c1ccc3ccccc3c1)n2-c1ccnc(NC2CCCCC2)n1 = 6.13
• COc1ccc2c(c1)nc(-c1ccc3ccccc3c1)n2-c1ccnc(N[C@@H]2CCCN(C(=O)C3CC3)C2)n1 = 5.54
• c1ccc2cc(-c3nc4ccccc4n3-c3ccnc(N[C@@H]4CCCNC4)n3)ccc2c1 = 5.53
• COc1ccc2c(c1)nc(-c1ccc(Cl)c(Cl)c1)n2-c1ccnc(NC2CCCCC2)c1 = 4.74
• Oc1ccc2nc(-c3ccc4ccccc4c3)n(-c3ccnc(NC4CCOCC4)n3)c2c1 = 5.22
• Oc1ccc2c(c1)nc(-c1ccc3ccccc3c1)n2-c1ccnc(NC2CCCCC2)c1 = 4.61
• Oc1ccc2c(c1)nc(-c1ccc3ccccc3c1)n2-c1ccnc(NC2CCCCC2)n1 = 5.72
• Oc1ccc2c(c1)nc(-c1ccc3ccccc3c1)n2-c1ccnc(NC2CCOCC2)n1 = 5.78
• c1ccc2cc(-c3nc4ccccc4n3-c3ccnc(NC4CCOCC4)n3)ccc2c1 = 5.63

---

target: Mitogen-activated protein kinase 10 (Homo sapiens)
method notes: Binding affinity to JNK3 (unknown origin) by surface plasmon resonance analysis in presence of ATP
condition: read-out: pKd (converted)
Response field label takes criterion met when Kd is strictly below 6 µM and criterion not met in all other cases.

• Oc1ccc2c(c1)nc(-c1ccc(Cl)c(Cl)c1)n2-c1ccnc(NC2CCCCC2)c1 = criterion not met
• COc1ccc2c(c1)nc(-c1ccc(Cl)c(Cl)c1)n2-c1ccnc(NC2CCCCC2)c1 = criterion not met
• c1ccc2cc(-c3nc4ccccc4n3-c3ccnc(NC4CCCCC4)n3)ccc2c1 = criterion met
• COc1ccc2c(c1)nc(-c1ccc3ccccc3c1)n2-c1ccnc(N[C@@H]2CCCN(C(=O)C3CC3)C2)n1 = criterion met

---

target: Mitogen-activated protein kinase 10 (Homo sapiens, UniProt P53779)
method notes: Binding affinity to JNK3 (unknown origin) by surface plasmon resonance analysis in presence of ATP
condition: read-out: pKd (converted)
Kd values for the compounds below.
measured metric: Kd (µM)

* COc1ccc2nc(-c3ccc4ccccc4c3)n(-c3ccnc(N[C@@H]4CCCN(C(=O)C5CC5)C4)n3)c2c1 | 1.17
* c1ccc2cc(-c3nc4ccccc4n3-c3ccnc(NC4CCOCC4)n3)ccc2c1 | 2.34
* Oc1ccc2c(c1)nc(-c1ccc3ccccc3c1)n2-c1ccnc(NC2CCCCC2)c1 | 24.5
* Oc1ccc2c(c1)nc(-c1ccc3ccccc3c1)n2-c1ccnc(NC2CCOCC2)c1 | 10
* c1ccc2cc(-c3nc4ccccc4n3-c3ccnc(NC4CCCCC4)c3)ccc2c1 | 5.25

---

target: Mitogen-activated protein kinase 10 (Homo sapiens)
method notes: Binding affinity to JNK3 (unknown origin) by surface plasmon resonance analysis in presence of ATP
condition: read-out: Kd
Listed compounds paired with reported Kd
measured metric: Kd

• c1ccc2cc(-c3nc4ccccc4n3-c3ccnc(NC4CCOCC4)c3)ccc2c1 = 4.65 µM
• c1ccc2cc(-c3nc4ccccc4n3-c3ccnc(NC4CCCCC4)n3)ccc2c1 = 1.75 µM
• C[C@H](O)CNc1cc(-n2c(-c3cccc(O)c3)nc3ccccc32)ccn1 = 19.1 µM
• COc1ccc2nc(-c3ccc4ccccc4c3)n(-c3ccnc(N[C@@H]4CCCN(C(=O)C5CC5)C4)n3)c2c1 = 1.17 µM
• O=C(C1CC1)N1CCC[C@@H](Nc2cc(-n3c(-c4ccc5ccccc5c4)nc4ccccc43)ccn2)C1 = 10.7 µM
• O=C(C1CC1)N1CCC[C@@H](Nc2nccc(-n3c(-c4ccc(Cl)c(Cl)c4)nc4ccccc43)n2)C1 = 7.69 µM
• Clc1ccc(-c2nc3ccccc3n2-c2ccnc(NC3CCOCC3)n2)cc1Cl = 21.8 µM
• C[C@H](O)CNc1cc(-n2c(-c3ccc4ccccc4c3)nc3ccccc32)ccn1 = 12.7 µM
• Oc1ccc2c(c1)nc(-c1ccc3ccccc3c1)n2-c1ccnc(NC2CCOCC2)c1 = 10 µM
• c1ccc2cc(-c3nc4ccccc4n3-c3ccnc(NC4CCCCC4)c3)ccc2c1 = 5.26 µM
• Oc1ccc2c(c1)nc(-c1ccc(Cl)c(Cl)c1)n2-c1ccnc(NC2CCCCC2)c1 = 13.8 µM
• Oc1ccc2nc(-c3ccc4ccccc4c3)n(-c3ccnc(NC4CCCCC4)n3)c2c1 = 31.7 µM
• Oc1ccc2c(c1)nc(-c1ccc3ccccc3c1)n2-c1ccnc(N[C@@H]2CCCNC2)c1 = 6.05 µM
• O=C(C1CC1)N1CCC[C@@H](Nc2cc(-n3c(-c4ccc5ccccc5c4)nc4cc(O)ccc43)ccn2)C1 = 27.7 µM

---

target: Mitogen-activated protein kinase 10 (Homo sapiens)
method notes: Binding affinity to JNK3 (unknown origin) by surface plasmon resonance analysis in presence of ATP
condition: read-out: pKd (converted)
Under this convention, 1 (yes) denotes Kd strictly below 20 µM and 0 (no) denotes Kd at or above 20 µM.

* O=C(C1CC1)N1CCC[C@@H](Nc2nccc(-n3c(-c4ccc5ccccc5c4)nc4cc(O)ccc43)n2)C1 | 1 (yes)
* COc1ccc2c(c1)nc(-c1ccc3ccccc3c1)n2-c1ccnc(NC2CCCCC2)n1 | 1 (yes)
* O=C(C1CC1)N1CCC[C@@H](Nc2cc(-n3c(-c4cccc(O)c4)nc4ccccc43)ccn2)C1 | 1 (yes)
* O=C(C1CC1)N1CCC[C@@H](Nc2cc(-n3c(-c4ccc5ccccc5c4)nc4ccccc43)ccn2)C1 | 1 (yes)
* COc1ccc2c(c1)nc(-c1ccc3ccccc3c1)n2-c1ccnc(NC2CCCCC2)c1 | 0 (no)
* C[C@H](O)CNc1cc(-n2c(-c3cccc(O)c3)nc3ccccc32)ccn1 | 1 (yes)
* Oc1ccc2nc(-c3ccc4ccccc4c3)n(-c3ccnc(NC4CCCCC4)n3)c2c1 | 0 (no)
* O=C(C1CC1)N1CCC[C@@H](Nc2cc(-n3c(-c4ccc5ccccc5c4)nc4cc(O)ccc43)ccn2)C1 | 0 (no)
* COc1ccc2nc(-c3ccc4ccccc4c3)n(-c3ccnc(NC4CCCCC4)n3)c2c1 | 1 (yes)

Measured values drawn from ChEMBL document CHEMBL2331452 for this set.
